# target-entity: Melanocyte-stimulating hormone receptor (Homo sapiens)
# experiment: Agonist activity at human MC1R expressed in HEK293 cells at 10 uM after 3 mins by cAMP assay relative to MT-2
# Format: functional, cell-based
# Sequence (Q01726 whole entry, looked up): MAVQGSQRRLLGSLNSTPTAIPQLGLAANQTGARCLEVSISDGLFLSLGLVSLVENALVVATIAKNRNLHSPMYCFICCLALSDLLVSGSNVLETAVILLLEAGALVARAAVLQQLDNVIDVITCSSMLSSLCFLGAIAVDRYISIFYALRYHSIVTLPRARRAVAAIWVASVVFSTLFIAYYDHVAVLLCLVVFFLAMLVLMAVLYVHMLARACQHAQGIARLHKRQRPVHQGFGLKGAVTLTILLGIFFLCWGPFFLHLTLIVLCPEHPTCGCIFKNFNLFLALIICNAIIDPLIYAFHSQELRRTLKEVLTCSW
Square brackets hold non-standard residues; d marks the D form. Peptide text beside a SMILES is read from it. dPhe(4-CF3) = N[C@H](Cc1ccc(C(F)(F)F)cc1)C(=O)O; dPhe(4-Br) = N[C@H](Cc1ccc(Br)cc1)C(=O)O; dPhe(4-Cl) = N[C@H](Cc1ccc(Cl)cc1)C(=O)O; Nle = CCCC[C@H](N)C(=O)O
recorded-endpoint: Activity (%)

Past entries and their recorded results:
Give me measured Activity, please, for this molecule: CCCC[C@H](NC(=O)[C@@H](Cc1ccc(Cl)cc1)NC(=O)[C@@H]1CCCN1C(C)=O)C(=O)N[C@@H](Cc1c[nH]c2ccccc12)C(N)=O (Ac-P[dPhe(4-Cl)][Nle]W-NH2) 63

Provide one value: measured Activity of CCCC[C@H](NC(=O)[C@@H](Cc1ccc(C(F)(F)F)cc1)NC(=O)[C@@H]1CCCN1C(C)=O)C(=O)N[C@@H](Cc1c[nH]c2ccccc12)C(N)=O (Ac-P[dPhe(4-CF3)][Nle]W-NH2) 0

1. CCCC[C@H](NC(=O)[C@@H](Cc1ccc(Br)cc1)NC(=O)[C@@H]1CCCN1C(C)=O)C(=O)N[C@@H](Cc1c[nH]c2ccccc12)C(N)=O (Ac-P[dPhe(4-Br)][Nle]W-NH2)
2. CCCC[C@H](NC(=O)[C@@H](Cc1ccc(Br)cc1)NC(=O)[C@H](Cc1cnc[nH]1)NC(C)=O)C(=O)N[C@@H](Cc1c[nH]c2ccccc12)C(N)=O (Ac-H[dPhe(4-Br)][Nle]W-NH2)
3. CCCC[C@H](NC(=O)[C@@H](Cc1ccccc1)NC(=O)[C@@H]1CCCN1C(C)=O)C(=O)N[C@@H](Cc1c[nH]c2ccccc12)C(N)=O (Ac-P[dF][Nle]W-NH2)
Output the entries ranked by Activity from maximum down to minimum. Response format: the labels, sorted as the prompt asks. 2, 1, 3
(2: 100%, 1: 39%, 3: 0%)

###

# target-entity: Melanocortin receptor 5 (Homo sapiens)
# Sequence (P33032 whole entry): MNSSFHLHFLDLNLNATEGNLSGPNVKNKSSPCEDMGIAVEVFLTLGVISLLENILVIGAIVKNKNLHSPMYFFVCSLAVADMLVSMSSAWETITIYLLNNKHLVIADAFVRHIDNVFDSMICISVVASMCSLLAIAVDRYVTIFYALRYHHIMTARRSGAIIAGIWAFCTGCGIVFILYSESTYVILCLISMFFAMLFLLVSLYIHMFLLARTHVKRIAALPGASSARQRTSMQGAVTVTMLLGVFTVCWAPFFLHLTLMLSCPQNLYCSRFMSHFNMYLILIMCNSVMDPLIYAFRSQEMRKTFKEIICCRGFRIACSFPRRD
# experiment: Displacement of [125I]-[Nle4,d-Phe7]-alpha-MSH from human MC5R expressed in HEK293 cells at 10 uM after 40 mins by gamma counting analysis relative to control
# Format: cell-based
Square brackets hold non-standard residues; d marks the D form. Peptide text beside a SMILES is read from it. dPhe(4-CF3) = N[C@H](Cc1ccc(C(F)(F)F)cc1)C(=O)O; dPhe(4-Br) = N[C@H](Cc1ccc(Br)cc1)C(=O)O; dPhe(4-Cl) = N[C@H](Cc1ccc(Cl)cc1)C(=O)O; Nle = CCCC[C@H](N)C(=O)O
recorded-endpoint: %max (%)

Check out these entries, answers already filled in.
Output reported %max of the compound CCCC[C@H](NC(=O)[C@@H](Cc1ccc(C(F)(F)F)cc1)NC(=O)[C@H](Cc1cnc[nH]1)NC(C)=O)C(=O)N[C@@H](Cc1c[nH]c2ccccc12)C(N)=O (Ac-H[dPhe(4-CF3)][Nle]W-NH2) on Melanocortin receptor 5 (Homo sapiens). 37

Give reported %max for CCCC[C@H](NC(=O)[C@@H](Cc1ccc(Cl)cc1)NC(=O)[C@H](Cc1cnc[nH]1)NC(C)=O)C(=O)N[C@@H](Cc1c[nH]c2ccccc12)C(N)=O (Ac-H[dPhe(4-Cl)][Nle]W-NH2) (Melanocortin receptor 5 (Homo sapiens)) 0

Please report the measured %max for CCCC[C@H](NC(=O)[C@@H](Cc1ccc(Br)cc1)NC(=O)[C@@H]1CCCN1C(C)=O)C(=O)N[C@@H](Cc1c[nH]c2ccccc12)C(N)=O (Ac-P[dPhe(4-Br)][Nle]W-NH2) tested on Melanocortin receptor 5 (Homo sapiens). 0

A. CCCC[C@H](NC(=O)[C@@H](Cc1ccc(Cl)cc1)NC(=O)[C@@H]1CCCN1C(C)=O)C(=O)N[C@@H](Cc1c[nH]c2ccccc12)C(N)=O (Ac-P[dPhe(4-Cl)][Nle]W-NH2)
B. CCCC[C@H](NC(=O)[C@@H](Cc1ccccc1)NC(=O)[C@H](Cc1cnc[nH]1)NC(C)=O)C(=O)N[C@@H](Cc1c[nH]c2ccccc12)C(N)=O (Ac-H[dF][Nle]W-NH2)
C. CC(=O)N[C@@H](Cc1cnc[nH]1)C(=O)N[C@H](Cc1ccccc1)C(=O)N[C@@H](CCCNC(=N)N)C(=O)N[C@@H](Cc1c[nH]c2ccccc12)C(N)=O
# ascending order, key=%max Give the labels in the order specified. A, B, C

###

# target-entity: Melanocyte-stimulating hormone receptor (Homo sapiens)
# experiment: Displacement of [125I]-[Nle4,d-Phe7]-alpha-MSH from human MC1R expressed in HEK293 cells after 40 mins by gamma counting analysis
# Sequence (Q01726 whole entry): as the sequence (Q01726 whole entry, looked up) above
pIC50: −log10 of the molar value. Square brackets hold non-standard residues; d marks the D form. Peptide text beside a SMILES is read from it. dPhe(4-CF3) = N[C@H](Cc1ccc(C(F)(F)F)cc1)C(=O)O; dPhe(4-Br) = N[C@H](Cc1ccc(Br)cc1)C(=O)O; dPhe(4-Cl) = N[C@H](Cc1ccc(Cl)cc1)C(=O)O; dPhe(4-F) = N[C@H](Cc1ccc(F)cc1)C(=O)O; Nle = CCCC[C@H](N)C(=O)O
recorded-endpoint: pIC50

Illustrative cases are given below, each with its answer.
// fetch pIC50 given entry CCCC[C@H](NC(=O)[C@@H](Cc1ccc(Br)cc1)NC(=O)[C@@H]1CCCN1C(C)=O)C(=O)N[C@@H](Cc1c[nH]c2ccccc12)C(N)=O (Ac-P[dPhe(4-Br)][Nle]W-NH2) 7.10

Give me measured pIC50, please, for this compound: CCCC[C@H](NC(=O)[C@@H](Cc1ccc(F)cc1)NC(=O)[C@H](Cc1cnc[nH]1)NC(C)=O)C(=O)N[C@@H](Cc1c[nH]c2ccccc12)C(N)=O (Ac-H[dPhe(4-F)][Nle]W-NH2) 6.61

Name the recorded pIC50 of the compound listed here: CCCC[C@H](NC(=O)[C@@H](Cc1ccc(Br)cc1)NC(=O)[C@H](Cc1cnc[nH]1)NC(C)=O)C(=O)N[C@@H](Cc1c[nH]c2ccccc12)C(N)=O (Ac-H[dPhe(4-Br)][Nle]W-NH2) 6.81

Name the recorded pIC50 of the compound listed here: "CC(=O)N[C@@H](Cc1cnc[nH]1)C(=O)N[C@H](Cc1ccccc1)C(=O)N[C@@H](CCCN=C(N)N)C(=O)N[C@@H](Cc1c[nH]c2ccccc12)C(N)=O" 6.98

A. CCCC[C@H](NC(=O)[C@@H](Cc1ccc(C(F)(F)F)cc1)NC(=O)[C@H](Cc1cnc[nH]1)NC(C)=O)C(=O)N[C@@H](Cc1c[nH]c2ccccc12)C(N)=O (Ac-H[dPhe(4-CF3)][Nle]W-NH2)
B. CCCC[C@H](NC(=O)[C@@H](Cc1ccc(Cl)cc1)NC(=O)[C@H](Cc1cnc[nH]1)NC(C)=O)C(=O)N[C@@H](Cc1c[nH]c2ccccc12)C(N)=O (Ac-H[dPhe(4-Cl)][Nle]W-NH2)
C. CCCC[C@H](NC(=O)[C@@H](Cc1ccc(Cl)cc1)NC(=O)[C@@H]1CCCN1C(C)=O)C(=O)N[C@@H](Cc1c[nH]c2ccccc12)C(N)=O (Ac-P[dPhe(4-Cl)][Nle]W-NH2)
D. CCCC[C@H](NC(=O)[C@@H](Cc1ccccc1)NC(=O)[C@H](Cc1cnc[nH]1)NC(C)=O)C(=O)N[C@@H](Cc1c[nH]c2ccccc12)C(N)=O (Ac-H[dF][Nle]W-NH2)
E. CCCC[C@H](NC(=O)[C@@H](Cc1ccc(F)cc1)NC(=O)[C@@H]1CCCN1C(C)=O)C(=O)N[C@@H](Cc1c[nH]c2ccccc12)C(N)=O (Ac-P[dPhe(4-F)][Nle]W-NH2)
# ascending order, key=pIC50 Answer by writing out the labels in the requested order. A, B, D, C, E
(A: 6.47, B: 6.91, D: 7.30, C: 8.72, E: 9.13)

###

# target-entity: Melanocortin receptor 3 (Homo sapiens, UniProt P41968)
# Sequence (P41968 whole entry): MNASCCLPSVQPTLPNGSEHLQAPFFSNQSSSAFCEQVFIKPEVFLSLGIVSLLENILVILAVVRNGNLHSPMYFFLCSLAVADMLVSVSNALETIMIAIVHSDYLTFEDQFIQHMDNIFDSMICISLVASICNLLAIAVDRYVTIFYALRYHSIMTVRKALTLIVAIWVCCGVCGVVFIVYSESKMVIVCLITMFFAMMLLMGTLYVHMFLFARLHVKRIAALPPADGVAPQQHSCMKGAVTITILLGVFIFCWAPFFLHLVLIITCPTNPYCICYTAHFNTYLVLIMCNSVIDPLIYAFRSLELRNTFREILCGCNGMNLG
# experiment: Displacement of [125I]-[Nle4,d-Phe7]-alpha-MSH from human MC3R expressed in HEK293 cells after 40 mins by gamma counting analysis
Square brackets hold non-standard residues; d marks the D form. Peptide text beside a SMILES is read from it. dPhe(4-Br) = N[C@H](Cc1ccc(Br)cc1)C(=O)O; dPhe(4-F) = N[C@H](Cc1ccc(F)cc1)C(=O)O; Nle = CCCC[C@H](N)C(=O)O
recorded-endpoint: IC50 (nM)

Read off the recorded IC50 for CCCC[C@H](NC(=O)[C@@H](Cc1ccc(F)cc1)NC(=O)[C@@H]1CCCN1C(C)=O)C(=O)N[C@@H](Cc1c[nH]c2ccccc12)C(N)=O (Ac-P[dPhe(4-F)][Nle]W-NH2) 46.8

a. CCCC[C@H](NC(=O)[C@@H](Cc1ccc(Br)cc1)NC(=O)[C@H](Cc1cnc[nH]1)NC(C)=O)C(=O)N[C@@H](Cc1c[nH]c2ccccc12)C(N)=O (Ac-H[dPhe(4-Br)][Nle]W-NH2)
b. CC(=O)N[C@@H](Cc1cnc[nH]1)C(=O)N[C@H](Cc1ccccc1)C(=O)N[C@@H](CCCN=C(N)N)C(=O)N[C@@H](Cc1c[nH]c2ccccc12)C(N)=O
Lab note: record which item had the higher IC50, a or b . State your choice using its label. a
